# Assay system: T1, Rhesus IL-18 (rhesus (rhesus/cynomolgus))
# T1 construct: also called Rhesus/Cynomolgus IL-18; rhesus/cynomolgus IL-18
# Measurement description: SPR, Biacore 3000, antibody captured on Protein A, 25 C
Property: pKd; scope: individual binders
Scale explanation: pKd corresponds to minus log10 of a concentration expressed in moles per litre.

Solved entries:
>>> value("2C10 rat-human chimera (chimaeric antibody 2C10c) (antibody, V domains shown, Rat 2C10 V regions joined to human IgG1 and kappa C regions; also called Chimera 2C10; 2C10 Chimera) VH: EVQLQQSGAELVRPGTSVKLSCKVSGEISTGYYFHFVRRRPGQGLEWIGRIDPEDDSTKYAERFKDRATLTAQTSSNTAYLNLSSLTSEDTATYFCTTWRIYRDSSGRPFYVMDAWGQGTLVTVSS VL: DIQMTQSPASLSASLGETVSIECLASEDIYTYLTWYQQKPGKSPQLLIYGANKLQDGVPSRFSGSGSGTQYSLKISGIQPEDEGDYFCLQGSKFPLTFGSGTKLEIKR")
10.26
>>> value("H1L1 humanised anti-IL-18 antibody (antibody, human IgG1, kappa, V domains shown, Human IgG1 / kappa) VH: QVQLVQSGAEVKKPGASVKVSCKVSGEISTGYYFHWVRQAPGKGLEWMGRIDPEDDSTKYAERFKDRVTMTEDTSTDTAYMELSSLRSEDTAVYYCTTWRIYRDSSGRPFYVMDAWGQGTLVTVSS VL: DIQMTQSPSSVSASVGDRVTITCLASEDIYTYLTWYQQKPGKAPKLLIYGANKLQDGVPSRFSGSGSGTDFTLTISSLQPEDFATYYCLQGSKFPLTFGQGTKLEIKR")
9.42

Now for the binder whose pKd we want.
Respond only with pKd recorded for H2L1 humanised anti-IL-18 antibody (antibody, human IgG1, kappa, V domains shown, Human IgG1 / kappa) VH: QVQLVQSGAEVKKPGASVKVSCKVSGEISTGYYFHWVRRRPGKGLEWMGRIDPEDDSTKYAERFKDRVTMTEDTSTDTAYMELSSLRSEDTAVYYCTTWRIYRDSSGRPFYVMDAWGQGTLVTVSS VL: DIQMTQSPSSVSASVGDRVTITCLASEDIYTYLTWYQQKPGKAPKLLIYGANKLQDGVPSRFSGSGSGTDFTLTISSLQPEDFATYYCLQGSKFPLTFGQGTKLEIKR
9.20

These entries and their values trace back to patent US8133978.
